test system: SARS-CoV-2 strain hCoV-19/Czech Republic/NRL_6632_2/2020; test: microbe, parasite or virus in culture; assay type: cell-based; conditions: Severe acute respiratory syndrome coronavirus 2; Calu-3 cell line; read-out: EC50 (antiviral effect)
measure: EC50

compound	measure	endpoint-value
Cc1cc(=O)[nH]c2cc(NC(=O)[C@H]3O[C@@H](n4cnc5c(N)ncnc54)[C@H](O)[C@@H]3O)ccc12 [12n]	EC50	> 50 µM
Cc1cc(=O)[nH]c2cc(N(C)C(=O)[C@H]3O[C@@H](n4cc(C#Cc5cncnc5)c5c(N)ncnc54)[C@H](O)[C@@H]3O)ccc12 [18q]	EC50	> 50 µM
Cc1cc(=O)oc2cc(NC(=O)[C@H]3O[C@@H](n4cnc5c(N)ncnc54)[C@H](O)[C@@H]3O)ccc12 [12l]	EC50	> 50 µM

----------
test system: Caco-2 monolayers; assay: in vitro; settings: Caco-2
Documented Papp B-A across a set of molecules
measure: Papp B-A (cm/s x 10-6)

molecule	endpoint-value
Cc1cc(=O)[nH]c2cc(N(C)C(=O)[C@H]3O[C@@H](n4cc(C#Cc5cncnc5)c5c(N)ncnc54)[C@H](O)[C@@H]3O)ccc12 [18q]	2.1
Cc1cc(=O)oc2cc(NC(=O)[C@H]3O[C@@H](n4cnc5c(N)ncnc54)[C@H](O)[C@@H]3O)ccc12 [12l]	10.7
Cc1cc(=O)[nH]c2cc(NC(=O)[C@H]3O[C@@H](n4cc(C#Cc5cncnc5)c5c(N)ncnc54)[C@H](O)[C@@H]3O)ccc12 [18n]	7.3
Cc1cc(=O)[nH]c2cc(NC(=O)[C@H]3O[C@@H](n4cnc5c(N)ncnc54)[C@H](O)[C@@H]3O)ccc12 [12n]	2.2
Nc1ncnc2c1ncn2[C@@H]1O[C@H](C(=O)Nc2ccc3c(C(F)(F)F)cc(=O)oc3c2)[C@@H](O)[C@H]1O [12m]	32.9
Cc1cc(=O)oc2cc(NC(=O)[C@H]3O[C@@H](n4cc(C#Cc5cncnc5)c5c(N)ncnc54)[C@H](O)[C@@H]3O)ccc12 [18l]	8.3

----------
test: in vitro; conditions: human, Caco-2, pH 7.4
Flag rule - Papp B→A at 2 h, 10 µM less than 8 ×10⁻⁶ cm/s flags y; the remaining entries get n.

molecule	class
Cc1cc(=O)[nH]c2cc(NC(=O)[C@H]3O[C@@H](n4cc(C#Cc5cncnc5)c5c(N)ncnc54)[C@H](O)[C@@H]3O)ccc12 [18n]	y
Cc1cc(=O)[nH]c2cc(N(C)C(=O)[C@H]3O[C@@H](n4cc(C#Cc5cncnc5)c5c(N)ncnc54)[C@H](O)[C@@H]3O)ccc12 [18q]	y
Cc1cc(=O)oc2cc(NC(=O)[C@H]3O[C@@H](n4cnc5c(N)ncnc54)[C@H](O)[C@@H]3O)ccc12 [12l]	n
Cc1cc(=O)oc2cc(NC(=O)[C@H]3O[C@@H](n4cc(C#Cc5cncnc5)c5c(N)ncnc54)[C@H](O)[C@@H]3O)ccc12 [18l]	n
Nc1ncnc2c1ncn2[C@@H]1O[C@H](C(=O)Nc2ccc3c(C(F)(F)F)cc(=O)oc3c2)[C@@H](O)[C@H]1O [12m]	n
Cc1cc(=O)[nH]c2cc(NC(=O)[C@H]3O[C@@H](n4cnc5c(N)ncnc54)[C@H](O)[C@@H]3O)ccc12 [12n]	y

----------
Listing: Microsomal stability % of the parent compound after 45 min, Human of selected compounds
conditions: microsomes, 0.75 h, 10 µM, pH 7.4
measure: Microsomal stability % of the parent compound after 45 min, Human (%)

compound	endpoint-value
Cc1cc(=O)oc2cc(NC(=O)[C@H]3O[C@@H](n4cnc5c(N)ncnc54)[C@H](O)[C@@H]3O)ccc12 [12l]	104
Cc1cc(=O)oc2cc(NC(=O)[C@H]3O[C@@H](n4cc(C#Cc5cncnc5)c5c(N)ncnc54)[C@H](O)[C@@H]3O)ccc12 [18l]	90
Nc1ncnc2c1ncn2[C@@H]1O[C@H](C(=O)Nc2ccc3c(C(F)(F)F)cc(=O)oc3c2)[C@@H](O)[C@H]1O [12m]	90

----------
molecular target: SARS-CoV-2 nsp14 MTase (Severe acute respiratory syndrome coronavirus 2); assay: biochemical; assay type: biochemical; conditions: Table S1; read-out: IC50 (inhibitory activity)
The entries below come with measured IC50 values attached.

molecule	measurement-target	unit-label	IC50
Nc1ncnc2c1ncn2[C@@H]1O[C@H](C(=O)Nc2ccc3cccnc3c2)[C@@H](O)[C@H]1O [12p]	SARS-CoV-2 nsp14 MTase (Severe acute respiratory syndrome coronavirus 2)	nM	4810
Nc1ncnc2c1ncn2[C@@H]1O[C@H](C(=O)Nc2ccc3c(c2)NC(=O)CC3)[C@@H](O)[C@H]1O [12o]	SARS-CoV-2 nsp14 MTase (Severe acute respiratory syndrome coronavirus 2)	nM	6550
Cc1cc(=O)oc2cc(SC[C@H]3O[C@@H](n4cnc5c(N)ncnc54)[C@H](O)[C@@H]3O)ccc12	SARS-CoV-2 nsp14 MTase (Severe acute respiratory syndrome coronavirus 2)	nM	3660
Nc1ncnc2c1ncn2[C@@H]1O[C@H](C(=O)Nc2ccc3c(c2)OCCO3)[C@@H](O)[C@H]1O [12k]	SARS-CoV-2 nsp14 MTase (Severe acute respiratory syndrome coronavirus 2)	nM	1810
Cc1cc(=O)[nH]c2cc(N(C)C(=O)[C@H]3O[C@@H](n4cc(C#Cc5cncnc5)c5c(N)ncnc54)[C@H](O)[C@@H]3O)ccc12 [18q]	SARS-CoV-2 nsp14 MTase (Severe acute respiratory syndrome coronavirus 2)	nM	891
Cc1cc(=O)oc2cc(NC(=O)[C@H]3O[C@@H](n4cnc5c(N)ncnc54)[C@H](O)[C@@H]3O)ccc12 [12l]	SARS-CoV-2 nsp14 MTase (Severe acute respiratory syndrome coronavirus 2)	nM	364
Nc1ncnc2c1ncn2[C@@H]1O[C@H](C(=O)Nc2ccc3c(C(F)(F)F)cc(=O)oc3c2)[C@@H](O)[C@H]1O [12m]	SARS-CoV-2 nsp14 MTase (Severe acute respiratory syndrome coronavirus 2)	nM	1470

----------
molecular target: UniProt O43148
Sequence (O43148 whole entry): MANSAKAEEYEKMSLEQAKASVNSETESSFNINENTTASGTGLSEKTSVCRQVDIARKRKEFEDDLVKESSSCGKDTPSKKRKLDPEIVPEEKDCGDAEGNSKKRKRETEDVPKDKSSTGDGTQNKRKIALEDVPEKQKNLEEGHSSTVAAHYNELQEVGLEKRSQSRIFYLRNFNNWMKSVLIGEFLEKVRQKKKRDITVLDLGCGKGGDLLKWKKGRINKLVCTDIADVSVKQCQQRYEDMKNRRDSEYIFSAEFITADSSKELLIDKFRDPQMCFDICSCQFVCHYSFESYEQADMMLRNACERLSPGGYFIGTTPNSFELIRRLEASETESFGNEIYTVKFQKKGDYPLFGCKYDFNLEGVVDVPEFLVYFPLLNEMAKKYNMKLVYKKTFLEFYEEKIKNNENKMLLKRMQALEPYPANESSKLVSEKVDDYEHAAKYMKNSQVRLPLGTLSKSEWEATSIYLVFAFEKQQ
pIC50: −log10 of the molar value.
measure: pIC50

molecule	endpoint-value
Cc1cc(=O)oc2cc(NC(=O)[C@H]3O[C@@H](n4cc(C#Cc5cncnc5)c5c(N)ncnc54)[C@H](O)[C@@H]3O)ccc12 [18l]	< 4.60

----------
biological target: SARS-CoV-2 nsp14 MTase (Severe acute respiratory syndrome coronavirus 2, UniProt P0DTD1); test: biochemical; format: biochemical; details: Table S1, dose-response curve, variable slope model
Listing: Hill slope of selected compounds

compound	Hill slope
Cc1cc(=O)[nH]c2cc(NC(=O)[C@H]3O[C@@H](n4cc(C#Cc5cncnc5)c5c(N)ncnc54)[C@H](O)[C@@H]3O)ccc12 [18n]	-1.29
Cc1cc(=O)[nH]c2cc(NC(=O)[C@H]3O[C@@H](n4cnc5c(N)ncnc54)[C@H](O)[C@@H]3O)ccc12 [12n]	-1.19
Cc1cc(=O)[nH]c2cc(N(C)C(=O)[C@H]3O[C@@H](n4cc(C#Cc5cncnc5)c5c(N)ncnc54)[C@H](O)[C@@H]3O)ccc12 [18q]	-1.02
Nc1ncnc2c1ncn2[C@@H]1O[C@H](C(=O)Nc2ccc3c(C(F)(F)F)cc(=O)oc3c2)[C@@H](O)[C@H]1O [12m]	-1.01
Cc1cc(=O)oc2cc(NC(=O)[C@H]3O[C@@H](n4cnc5c(N)ncnc54)[C@H](O)[C@@H]3O)ccc12 [12l]	-1.39
Cc1cc(=O)oc2cc(NC(=O)[C@H]3O[C@@H](n4cc(C#Cc5cncnc5)c5c(N)ncnc54)[C@H](O)[C@@H]3O)ccc12 [18l]	-1.09
Nc1ncnc2c1ncn2[C@@H]1O[C@H](C(=O)Nc2ccc3c(c2)OCCO3)[C@@H](O)[C@H]1O [12k]	-1.01

----------
target: SARS-CoV-2 nsp14 MTase (Severe acute respiratory syndrome coronavirus 2); test: biochemical; format: biochemical; conditions: Table 1 and text; N.I., no inhibition; read-out: IC50
pIC50: −log10 of the molar value.
Readings of pIC50 for the listed compounds

compound	bound-operator	pIC50
Cc1cc(=O)[nH]c2cc(NC(=O)[C@H]3O[C@@H](n4cnc5c(N)ncnc54)[C@H](O)[C@@H]3O)ccc12 [12n]	=	6.46
Cc1cc(=O)oc2cc(S(=O)(=O)C[C@H]3O[C@@H](n4cnc5c(N)ncnc54)[C@H](O)[C@@H]3O)ccc12	<	4.60
Cc1cc(=O)oc2cc(SC[C@H]3O[C@@H](n4cnc5c(N)ncnc54)[C@H](O)[C@@H]3O)ccc12	=	5.44
Nc1ncnc2c1ncn2[C@@H]1O[C@H](C(=O)Nc2ccc3c(c2)NC(=O)CC3)[C@@H](O)[C@H]1O [12o]	=	5.18
COC(=O)c1ccc(NC(=O)[C@H]2O[C@@H](n3cnc4c(N)ncnc43)[C@H](O)[C@@H]2O)cc1 [12a]	<	4.60
Cc1cc(=O)[nH]c2cc(NC(=O)[C@H]3O[C@@H](n4cc(C#Cc5cncnc5)c5c(N)ncnc54)[C@H](O)[C@@H]3O)ccc12 [18n]	=	7.37
Nc1ncnc2c1ncn2[C@@H]1O[C@H](C(=O)Nc2ccc3c(C(F)(F)F)cc(=O)oc3c2)[C@@H](O)[C@H]1O [12m]	=	5.83
COc1ccc(NC(=O)[C@H]2O[C@@H](n3cnc4c(N)ncnc43)[C@H](O)[C@@H]2O)cc1O [12d]	<	4.60
Cc1cc(=O)[nH]c2cc(N(C)C(=O)[C@H]3O[C@@H](n4cc(C#Cc5cncnc5)c5c(N)ncnc54)[C@H](O)[C@@H]3O)ccc12 [18q]	=	6.05
Nc1ncnc2c1ncn2[C@@H]1O[C@H](C(=O)Nc2ccc3cccnc3c2)[C@@H](O)[C@H]1O [12p]	=	5.32
Cc1cc(=O)oc2cc(NC(=O)[C@H]3O[C@@H](n4cc(C#Cc5cncnc5)c5c(N)ncnc54)[C@H](O)[C@@H]3O)ccc12 [18l]	=	7.51
Nc1ncnc2c1ncn2[C@@H]1O[C@H](CNS(=O)(=O)c2ccc3c(c2)OCCO3)[C@@H](O)[C@H]1O [22k]	=	4.81
Cc1cc(=O)oc2cc(NC(=O)[C@H]3O[C@@H](n4cnc5c(N)ncnc54)[C@H](O)[C@@H]3O)ccc12 [12l]	=	6.44

Origin of the recorded values: paper PMC11352099
